Ref: patent US20240189289A1

Molecular target: EphA2 (Homo sapiens, UniProt P29317)
Sequence (P29317 24-976): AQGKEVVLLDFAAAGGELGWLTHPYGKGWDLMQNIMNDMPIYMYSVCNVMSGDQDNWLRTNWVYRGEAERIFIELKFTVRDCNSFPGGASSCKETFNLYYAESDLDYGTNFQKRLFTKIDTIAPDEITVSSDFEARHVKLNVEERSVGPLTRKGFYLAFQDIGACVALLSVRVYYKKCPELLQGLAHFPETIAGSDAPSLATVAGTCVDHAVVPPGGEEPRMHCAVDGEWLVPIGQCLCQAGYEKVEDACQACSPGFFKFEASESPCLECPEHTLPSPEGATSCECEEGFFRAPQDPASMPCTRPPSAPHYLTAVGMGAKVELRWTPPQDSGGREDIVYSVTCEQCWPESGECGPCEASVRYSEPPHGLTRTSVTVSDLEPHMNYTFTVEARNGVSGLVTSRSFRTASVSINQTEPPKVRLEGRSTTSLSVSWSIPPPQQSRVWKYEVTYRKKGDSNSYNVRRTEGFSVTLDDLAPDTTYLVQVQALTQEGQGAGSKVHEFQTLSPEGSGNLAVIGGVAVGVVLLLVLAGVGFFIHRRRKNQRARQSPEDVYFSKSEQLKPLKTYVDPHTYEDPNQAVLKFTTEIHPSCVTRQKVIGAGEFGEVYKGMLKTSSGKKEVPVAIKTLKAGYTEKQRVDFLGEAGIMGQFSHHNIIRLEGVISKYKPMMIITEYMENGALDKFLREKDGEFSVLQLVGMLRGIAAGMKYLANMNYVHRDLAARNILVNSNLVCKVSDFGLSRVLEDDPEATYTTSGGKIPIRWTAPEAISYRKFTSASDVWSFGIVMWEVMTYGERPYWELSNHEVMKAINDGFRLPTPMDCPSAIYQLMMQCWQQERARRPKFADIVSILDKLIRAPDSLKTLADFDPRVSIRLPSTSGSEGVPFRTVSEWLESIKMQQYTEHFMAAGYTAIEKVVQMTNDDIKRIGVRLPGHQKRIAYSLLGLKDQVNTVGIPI
Test: Eph receptor kinase activity assay (radiometric), EphA2
Assay type: biochemical
Conditions: 100 nM compound; read-out: EphA2 % act 100 nM
MEASUREMENT KIND: remaining activity at 0.1 µM (%)

Previously resolved entries follow.
COc1cccc(-c2ccc3ncc(C(=O)Nc4ccccc4Cl)n3c2)c1
70.5
O=C(Nc1ccccc1Cl)c1cnc2ccc(-c3ccccc3O)cn12
61.3
COc1ccc(-c2ccc3ncc(C(=O)Nc4ccccc4Cl)n3c2)cc1
59.6
CN(C)CC(=O)N1CCC(c2ccc3ncc(C(=O)Nc4ccccc4Cl)n3c2)CC1
45.1
O=C(Nc1ccccc1Cl)c1cnc2ccc(-c3ccccn3)cn12
33
NCc1ccc(-c2ccc3ncc(C(=O)Nc4ccccc4Cl)n3c2)cc1
11
O=C(Nc1ccccc1Cl)c1cnc2ccc(-c3ccncc3)cn12
32
O=C(Nc1ccccc1Cl)c1cnc2ccc(-c3cccnc3)cn12
29
NC(=O)c1cccc(-c2ccc3ncc(C(=O)Nc4ccccc4Cl)n3c2)c1
46
NCc1cccc(-c2ccc3ncc(C(=O)Nc4ccccc4Cl)n3c2)c1
25

P = Cc1ccc(-c2ccc3ncc(C(=O)Nc4ccccc4Cl)n3c2)cc1
Q = COc1ccc(Cl)c(NC(=O)c2cnc3ccc(C4CCNCC4)cn23)c1
So which one has the bigger remaining activity at 0.1 µM here, P or Q ? # reply format: chosen label
Q
(Q: 82.1%, P: 55.9%)

---

Target: EphB3 (Homo sapiens)
Test: EphB3 radiometric kinase activity assay (33P ATP filter binding)
Assay type: biochemical
Details: 300 nM compound; read-out: EphB3 % act 300 nM
MEASUREMENT KIND: remaining activity at 0.3 µM (%)

NC(=O)c1cccc(-c2ccc3ncc(C(=O)Nc4ccccc4Cl)n3c2)c1
7

A = O=C(Nc1ccccc1Cl)c1cnc2ccc(-c3ccncc3)cn12
B = O=C(Nc1ccccc1Cl)c1cnc2ccc(-c3cccnc3)cn12
So which one has the bigger remaining activity at 0.3 µM here, A or B ? # reply format: chosen label
B
(B: 11%, A: 5%)

---

Molecular target: EphA4 (Homo sapiens, UniProt P54764)
Sequence (P54764 20-986): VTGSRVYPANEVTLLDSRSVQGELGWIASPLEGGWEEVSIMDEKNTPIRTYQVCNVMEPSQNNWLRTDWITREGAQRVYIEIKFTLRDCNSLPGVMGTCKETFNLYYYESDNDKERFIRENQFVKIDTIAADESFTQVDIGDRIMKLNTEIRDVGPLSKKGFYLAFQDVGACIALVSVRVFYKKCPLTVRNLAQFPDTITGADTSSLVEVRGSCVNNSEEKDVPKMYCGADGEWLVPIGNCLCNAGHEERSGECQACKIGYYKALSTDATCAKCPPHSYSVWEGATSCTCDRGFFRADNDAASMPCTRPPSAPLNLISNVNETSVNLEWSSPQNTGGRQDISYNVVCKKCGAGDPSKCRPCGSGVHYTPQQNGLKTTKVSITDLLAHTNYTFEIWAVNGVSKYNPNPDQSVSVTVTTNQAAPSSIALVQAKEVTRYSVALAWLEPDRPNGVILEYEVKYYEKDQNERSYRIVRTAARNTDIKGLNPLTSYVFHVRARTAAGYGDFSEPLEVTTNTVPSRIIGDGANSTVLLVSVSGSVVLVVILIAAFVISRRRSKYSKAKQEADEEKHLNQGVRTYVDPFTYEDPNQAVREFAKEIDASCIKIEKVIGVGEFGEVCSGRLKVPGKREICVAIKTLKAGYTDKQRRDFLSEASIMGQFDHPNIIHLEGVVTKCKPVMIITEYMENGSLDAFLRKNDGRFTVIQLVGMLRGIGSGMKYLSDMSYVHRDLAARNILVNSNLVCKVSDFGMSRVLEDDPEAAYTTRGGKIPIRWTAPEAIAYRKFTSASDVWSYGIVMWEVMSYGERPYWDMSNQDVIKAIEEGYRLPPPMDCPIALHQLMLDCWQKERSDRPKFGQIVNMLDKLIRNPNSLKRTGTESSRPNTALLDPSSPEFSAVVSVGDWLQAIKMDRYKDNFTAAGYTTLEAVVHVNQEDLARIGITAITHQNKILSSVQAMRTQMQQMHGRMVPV
Experiment: Eph receptor kinase activity assay (radiometric), EphA4
Format: biochemical
Conditions: 300 nM compound; read-out: EphA4 % act 300 nM
MEASUREMENT KIND: remaining activity at 0.3 µM (%)

Previously resolved entries follow.
NCc1cccc(-c2ccc3ncc(C(=O)Nc4ccccc4Cl)n3c2)c1 [compound 108]
6
O=C(Nc1ccccc1Cl)c1cnc2ccc(-c3cccnc3)cn12 [compound 113]
19
O=C(Nc1ccccc1Cl)c1cnc2ccc(-c3ccncc3)cn12 [compound 114]
10

a = NC(=O)c1cccc(-c2ccc3ncc(C(=O)Nc4ccccc4Cl)n3c2)c1 [compound 110]
b = O=C(Nc1ccccc1Cl)c1cnc2ccc(-c3ncccn3)cn12 [compound 115]
Kindly compare a with b and tell me which has the lower remaining activity at 0.3 µM figure. # reply format: chosen label
a
(a: 12%, b: 34%)

1 = NCc1ccc(-c2ccc3ncc(C(=O)Nc4ccccc4Cl)n3c2)cc1 [compound 109]
2 = O=C(Nc1ccccc1Cl)c1cnc2ccc(-c3ccccn3)cn12 [compound 112]
Kindly compare 1 with 2 and tell me which has the lower remaining activity at 0.3 µM figure. # reply format: chosen label
1
(1: 5%, 2: 12%)

---

Target: EphA4 (Homo sapiens, UniProt P54764)
Assay: Eph receptor kinase activity assay (radiometric), EphA4
Type: biochemical
Conditions: 30 nM compound; read-out: EphA4 % act 30 nM
MEASUREMENT KIND: remaining activity at 0.03 µM (%)

Cc1ccc(-c2ccc3ncc(C(=O)Nc4ccccc4Cl)n3c2)cc1
62.8
CN(C)CC(=O)N1CCC(c2ccc3ncc(C(=O)Nc4ccccc4Cl)n3c2)CC1
74.2
COc1ccccc1-c1ccc2ncc(C(=O)Nc3ccccc3Cl)n2c1
80.2
COc1ccc(-c2ccc3ncc(C(=O)Nc4ccccc4Cl)n3c2)cc1
74.1
Cc1ccccc1-c1ccc2ncc(C(=O)Nc3ccccc3Cl)n2c1
58.3

---

Target: UniProt:P54753
Experiment: EphB3 radiometric kinase activity assay (33P ATP filter binding)
Format: biochemical
Details: 100 nM compound; read-out: EphB3 % act 100 nM
MEASUREMENT KIND: remaining activity at 0.1 µM (%)

Cc1cccc(-c2ccc3ncc(C(=O)Nc4ccccc4Cl)n3c2)c1 [compound 105]
63.7
O=C(Nc1ccccc1Cl)c1cnc2ccc(-c3ccccn3)cn12 [compound 112]
14

I = NC(=O)c1cccc(-c2ccc3ncc(C(=O)Nc4ccccc4Cl)n3c2)c1 [compound 110]
II = Cc1ccc(-c2ccc3ncc(C(=O)Nc4ccccc4Cl)n3c2)cc1 [compound 104]
So which one has the bigger remaining activity at 0.1 µM here, I or II ? # reply format: chosen label
II
(II: 55.9%, I: 39%)

---

Target: EphB4 (Homo sapiens, UniProt P54760)
Sequence (P54760 16-987): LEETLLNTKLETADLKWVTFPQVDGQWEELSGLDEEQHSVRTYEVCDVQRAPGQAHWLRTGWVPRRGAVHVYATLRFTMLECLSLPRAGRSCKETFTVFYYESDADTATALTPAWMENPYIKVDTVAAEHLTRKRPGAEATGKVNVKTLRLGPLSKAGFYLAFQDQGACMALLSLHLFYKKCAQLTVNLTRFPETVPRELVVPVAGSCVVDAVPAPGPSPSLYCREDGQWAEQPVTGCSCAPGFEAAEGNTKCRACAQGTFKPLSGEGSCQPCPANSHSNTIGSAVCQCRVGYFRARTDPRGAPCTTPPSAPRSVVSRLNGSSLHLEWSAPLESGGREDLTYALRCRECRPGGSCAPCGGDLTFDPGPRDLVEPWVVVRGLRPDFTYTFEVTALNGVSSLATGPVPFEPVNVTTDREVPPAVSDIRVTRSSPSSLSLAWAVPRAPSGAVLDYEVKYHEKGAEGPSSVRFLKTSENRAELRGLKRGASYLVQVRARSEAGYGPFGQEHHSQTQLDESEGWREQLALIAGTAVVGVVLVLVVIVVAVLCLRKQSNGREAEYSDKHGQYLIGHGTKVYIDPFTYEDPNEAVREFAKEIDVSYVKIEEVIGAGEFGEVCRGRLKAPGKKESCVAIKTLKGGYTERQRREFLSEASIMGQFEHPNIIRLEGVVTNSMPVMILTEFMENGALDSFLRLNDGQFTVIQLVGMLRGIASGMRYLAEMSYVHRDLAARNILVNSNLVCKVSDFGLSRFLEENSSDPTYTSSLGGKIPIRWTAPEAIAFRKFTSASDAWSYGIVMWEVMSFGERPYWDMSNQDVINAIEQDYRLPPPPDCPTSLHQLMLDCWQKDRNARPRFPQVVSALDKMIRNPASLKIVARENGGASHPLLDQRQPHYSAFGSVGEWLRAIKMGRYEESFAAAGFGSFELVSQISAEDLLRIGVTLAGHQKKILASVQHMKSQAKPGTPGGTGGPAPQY
Experiment: Eph receptor kinase activity assay (radiometric), EphB4
Format: biochemical
Details: 100 nM compound; read-out: EphB4 % act 100 nM
MEASUREMENT KIND: remaining activity at 0.1 µM (%)

Previously resolved entries follow.
O=C(Nc1ccccc1Cl)c1cnc2ccc(-c3cccnc3)cn12
7
COc1ccccc1-c1ccc2ncc(C(=O)Nc3ccccc3Cl)n2c1
82

1 = COc1ccc(-c2ccc3ncc(C(=O)Nc4ccccc4Cl)n3c2)cc1
2 = NCc1ccc(-c2ccc3ncc(C(=O)Nc4ccccc4Cl)n3c2)cc1
3 = O=C(Nc1ccccc1Cl)c1cnc2ccc(-c3ncccn3)cn12
Endpoint returns the given compounds ordered by ascending remaining activity at 0.1 µM. Form entry: ranked labels (order as requested).
2, 3, 1

---

Target: EphA4 (Homo sapiens, UniProt P54764)
Assay: Eph receptor kinase activity assay (radiometric), EphA4
Type: biochemical
Conditions: 30 nM compound; read-out: EphA4 % act 30 nM
MEASUREMENT KIND: remaining activity at 0.03 µM (%)

Previously resolved entries follow.
COc1cccc(NC(=O)c2cnc3ccc(C4CCNCC4)cn23)c1Cl
75.9
Cc1cccc(-c2ccc3ncc(C(=O)Nc4ccccc4Cl)n3c2)c1
40.9
O=C(Nc1ccccc1Cl)c1cnc2ccc(-c3ccccc3O)cn12
77

a = COc1cccc(-c2ccc3ncc(C(=O)Nc4ccccc4Cl)n3c2)c1
b = COc1ccc(Cl)c(NC(=O)c2cnc3ccc(C4CCNCC4)cn23)c1
So which one has the bigger remaining activity at 0.03 µM here, a or b ? # reply format: chosen label
a
(a: 85.1%, b: 55.9%)

---

Biological target: EphA4 (Homo sapiens, UniProt P54764)
Test: Eph receptor kinase activity assay (radiometric), EphA4
Type: biochemical
Settings: 100 nM compound; read-out: EphA4 % act 100 nM
MEASUREMENT KIND: remaining activity at 0.1 µM (%)

Previously resolved entries follow.
COc1ccc(-c2ccc3ncc(C(=O)Nc4ccccc4Cl)n3c2)cc1
83.9
O=C(Nc1ccccc1Cl)c1cnc2ccc(-c3ncccn3)cn12
54

a = COc1ccc(Cl)c(NC(=O)c2cnc3ccc(C4CCNCC4)cn23)c1
b = O=C(Nc1ccccc1Cl)c1cnc2ccc(-c3cccnc3)cn12
c = CN(C)CC(=O)N1CCC(c2ccc3ncc(C(=O)Nc4ccccc4Cl)n3c2)CC1
Endpoint returns the given molecules ordered by ascending remaining activity at 0.1 µM. Form entry: ranked labels (order as requested).
b, a, c

---

Biological target: EphB3 (Homo sapiens, UniProt P54753)
Sequence (P54753 34-998): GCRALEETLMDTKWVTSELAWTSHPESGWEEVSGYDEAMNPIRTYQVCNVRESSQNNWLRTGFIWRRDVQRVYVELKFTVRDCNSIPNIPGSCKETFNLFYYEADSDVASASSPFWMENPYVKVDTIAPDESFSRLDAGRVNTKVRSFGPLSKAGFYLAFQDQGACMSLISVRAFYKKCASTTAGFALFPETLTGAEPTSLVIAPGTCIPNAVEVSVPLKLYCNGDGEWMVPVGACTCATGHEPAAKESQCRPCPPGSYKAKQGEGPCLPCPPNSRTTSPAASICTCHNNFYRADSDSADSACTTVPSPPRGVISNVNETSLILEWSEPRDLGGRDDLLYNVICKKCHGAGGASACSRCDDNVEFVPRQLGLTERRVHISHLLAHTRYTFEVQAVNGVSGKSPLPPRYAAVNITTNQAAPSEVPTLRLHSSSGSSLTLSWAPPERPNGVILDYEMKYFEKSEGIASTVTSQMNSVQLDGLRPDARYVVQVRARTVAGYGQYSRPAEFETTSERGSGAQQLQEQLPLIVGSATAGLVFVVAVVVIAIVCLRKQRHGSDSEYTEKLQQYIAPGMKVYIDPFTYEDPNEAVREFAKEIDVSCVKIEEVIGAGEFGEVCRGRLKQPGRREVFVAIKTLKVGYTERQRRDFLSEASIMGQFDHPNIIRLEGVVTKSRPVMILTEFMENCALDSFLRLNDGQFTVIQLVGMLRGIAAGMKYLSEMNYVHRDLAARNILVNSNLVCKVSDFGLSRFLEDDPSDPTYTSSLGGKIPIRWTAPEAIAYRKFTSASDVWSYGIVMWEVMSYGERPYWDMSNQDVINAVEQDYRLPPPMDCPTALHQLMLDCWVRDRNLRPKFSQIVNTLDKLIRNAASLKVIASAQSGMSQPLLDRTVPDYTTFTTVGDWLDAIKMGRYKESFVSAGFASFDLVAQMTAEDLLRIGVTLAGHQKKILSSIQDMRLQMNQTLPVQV
Experiment: EphB3 radiometric kinase activity assay (33P ATP filter binding)
Assay type: biochemical
Conditions: 300 nM compound; read-out: EphB3 % act 300 nM
MEASUREMENT KIND: remaining activity at 0.3 µM (%)

Previously resolved entries follow.
NCc1ccc(-c2ccc3ncc(C(=O)Nc4ccccc4Cl)n3c2)cc1
4
O=C(Nc1ccccc1Cl)c1cnc2ccc(C3CCNCC3)cn12
7

I = NCc1cccc(-c2ccc3ncc(C(=O)Nc4ccccc4Cl)n3c2)c1
II = O=C(Nc1ccccc1Cl)c1cnc2ccc(-c3ccccn3)cn12
III = O=C(Nc1ccccc1Cl)c1cnc2ccc(-c3ncccn3)cn12
Endpoint returns the given compounds ordered by ascending remaining activity at 0.3 µM. Form entry: ranked labels (order as requested).
I, II, III

---

Biological target: UniProt P54753
Assay: EphB3 radiometric kinase activity assay (33P ATP filter binding)
Type: biochemical
Conditions: 100 nM compound; read-out: EphB3 % act 100 nM
MEASUREMENT KIND: remaining activity at 0.1 µM (%)

Previously resolved entries follow.
COc1ccccc1-c1ccc2ncc(C(=O)Nc3ccccc3Cl)n2c1 [compound 101]
52.7
CN(C)CC(=O)N1CCC(c2ccc3ncc(C(=O)Nc4ccccc4Cl)n3c2)CC1 [compound 119]
78.3

a = COc1cccc(-c2ccc3ncc(C(=O)Nc4ccccc4Cl)n3c2)c1 [compound 103]
b = Cc1ccccc1-c1ccc2ncc(C(=O)Nc3ccccc3Cl)n2c1 [compound 106]
c = O=C(Nc1ccccc1Cl)c1cnc2ccc(-c3ccncc3)cn12 [compound 114]
Thanks in advance: please rank these 3 entries by remaining activity at 0.1 µM, highest to lowest. Form entry: ranked labels (order as requested).
b, a, c
